system: SF-295; assay: NCI tumour cell line growth inhibition, 48 h
Active and inactive are the calls of the source. Rule as the data show it: active = GI50 up to about 1.1 µM and inactive = higher.
Log the outcome using a class from y for active, n for inactive

Worked examples follow.
Compound | System | Category Label
CN(C)c1ccc(C=c2c3ccccc3n3c2c2c([n+]3C)CCCC2)cc1 | SF-295 | y
O=C(CSc1c2ccccc2nc2ccccc12)Nc1ccccc1-c1ccccc1NC(=O)CSc1c2ccccc2nc2ccccc12 | SF-295 | n

# fetch the recorded call for CN1C(=O)C(O)C[C@@H]1c1ccc(F)cc1 (stereo not given in full) here
n

# fetch the recorded call for `CCN1CCN(c2ccc(Nc3ccnc4ccc5c(nnn5C)c34)cc2)CC1` here
n

# fetch the recorded call for `CCN(CC)CCOCCn1c2c(c3ccccc31)CCCC2` here
n

# fetch the recorded call for `CCCCCCCC/C=C\CCCCCCCC(=O)NCCN(CCN)C(=O)CCCCCCC/C=C\CCCCCCCC` here
n

# fetch the recorded call for `O=C(CN1CCCCC1)c1ccc2c(c1)Sc1ccccc1O2` here
n

# fetch the recorded call for `CCOC(=O)c1ccc(-n2cnc(-c3ccc([N+](=O)[O-])cc3)c2)cc1` here
n

# fetch the recorded call for Cc1cc(O)c2c(c1)C(=O)c1cc(O)cc(O)c1C2=O [EMODIN] here
n

# fetch the recorded call for `COc1ccc(NC(C)=O)c(C(=O)CCNC(C)=O)c1` here
n

###

tested on: SF-539; assay: NCI tumour cell line growth inhibition, 48 h
Calls of active or inactive are those of the source. Cut-off read from the data, not from the text of the source: active = GI50 up to about 1.1 µM and inactive = higher.
Measured GI50 of individual entries

Below: 4 compounds and their reported GI50.
Compound | System | Result
Clc1ccc(-c2nc(-c3ccc(Cl)cc3)[s+]s2)cc1 | SF-539 | 29.7 µM (inactive)
CN(C)Cc1cc(/N=N/c2c(Cl)cccc2Cl)ccc1O | SF-539 | > 100 µM (inactive)
COC(=O)C1CCC[C@H]2C(CO)=C(C)C(=O)[C@@H]12 (some centres not stated) | SF-539 | > 100 µM (inactive)
Cc1cc2nc(CC(C(F)(F)F)C(F)(F)F)oc2cc1C | SF-539 | 2.73 µM (inactive)

Quick check: GI50 on SF-539, item `O=C(O)c1cc2ccc(Cl)cc2c(O)c1C1=CCCCC1` ?
36.6 µM (inactive)

Quick check: GI50 on SF-539, item `COc1ccccc1NC(=O)C(C#N)=C(SC)SC` ?
> 100 µM (inactive)

Quick check: GI50 on SF-539, item C=C1CC(COc2ccc3c(C)c(Cl)c(=O)oc3c2)(c2ccccc2)OC1=O (configuration not stated) ?
3.38 µM (inactive)

Quick check: GI50 on SF-539, item `O=C1c2ccccc2-c2c1c(-c1cccc(Br)c1)nc1ccc3ccccc3c21` ?
> 100 µM (inactive)

Quick check: GI50 on SF-539, item `O=CNNC(=O)CSc1nc2ccc(I)cc2c(=O)n1Cc1ccccc1` ?
34.6 µM (inactive)

Quick check: GI50 on SF-539, item `O=C(O)CCNCCCNCCC(=O)O` ?
> 100 µM (inactive)

Quick check: GI50 on SF-539, item `Cn1c2c(c3c(=O)[nH]ncc31)Cc1ccccc1-2` ?
19.2 µM (inactive)

Quick check: GI50 on SF-539, item `O=Cc1ccc2ccocc1-2` ?
> 100 µM (inactive)

###

Measured GI50 of individual entries
tested on: SF-268; test: NCI tumour cell line growth inhibition, 48 h
Activity calls are given as the source filed them. Cut-off read from the data, not from the text of the source: active = GI50 up to about 1.1 µM and inactive = higher.

Below: 5 molecules and their reported GI50.
Molecule | Result
CS/C(=N\C(=S)N(C)C)N(c1ccccc1)c1nc(N(C)C)s[s+]1 | 12.1 µM (inactive)
CCCCOC(=O)Nc1ccc(S(=O)(=O)Nc2ccccc2Cl)cc1 | 16.9 µM (inactive)
CCOC(=O)C(NC(=O)CC)(Nc1ccc(S(=O)(=O)Nc2onc(C)c2C)cc1)C(F)(F)F (stereo not given) | > 100 µM (inactive)
COc1ccc(NC(=O)CC(=O)N2N=C(C)C(/N=N/c3ccc(C(=O)O)cc3)C2=O)cc1 (stereo not given) | > 100 µM (inactive)
Cc1ccc(C(=O)O)c(CC2Cc3c(C)cccc3C2=O)c1 (stereo not given) | > 100 µM (inactive)

Requested field: GI50. Item: `COc1cc2c(cc1OS(C)(=O)=O)N=C[C@@H]1CCCN1C2=O`
> 100 µM (inactive)

Requested field: GI50. Item: `Cn1c(=O)c2c(nc3sc4c(n32)C(=O)c2c(O)ccc(O)c2C4=O)n(C)c1=O`
6.04 µM (inactive)

Requested field: GI50. Item: CCN(CC)C1Oc2cc3c(cc2C(c2cc(OC)c(O)c(OC)c2)C1C)OCO3 (stereo not given)
16.3 µM (inactive)

Requested field: GI50. Item: C=CCOC1CC(n2cnc3c(N)ncnc32)OC1CO (stereo not given)
> 100 µM (inactive)

Requested field: GI50. Item: `Cc1ccc(-n2c(N)c(C#N)c3[nH]nc(N)c3c2=O)cc1`
> 100 µM (inactive)

// provenance: ChEMBL document CHEMBL1201862
